Hey, just so you know, these numbers are from ChEMBL document CHEMBL4382221.

target: Death-associated protein kinase 1 (Homo sapiens); test: Inhibition of human DAPK1 (1 to 363 residues) at 10 uM using KKLNRTLSFAEPG as substrate after 120 mins in presence of 10 uM [gamma-33P]-ATP by filtration method relative to control
Sequence (P53355 whole entry, looked up, the tested form may be a part): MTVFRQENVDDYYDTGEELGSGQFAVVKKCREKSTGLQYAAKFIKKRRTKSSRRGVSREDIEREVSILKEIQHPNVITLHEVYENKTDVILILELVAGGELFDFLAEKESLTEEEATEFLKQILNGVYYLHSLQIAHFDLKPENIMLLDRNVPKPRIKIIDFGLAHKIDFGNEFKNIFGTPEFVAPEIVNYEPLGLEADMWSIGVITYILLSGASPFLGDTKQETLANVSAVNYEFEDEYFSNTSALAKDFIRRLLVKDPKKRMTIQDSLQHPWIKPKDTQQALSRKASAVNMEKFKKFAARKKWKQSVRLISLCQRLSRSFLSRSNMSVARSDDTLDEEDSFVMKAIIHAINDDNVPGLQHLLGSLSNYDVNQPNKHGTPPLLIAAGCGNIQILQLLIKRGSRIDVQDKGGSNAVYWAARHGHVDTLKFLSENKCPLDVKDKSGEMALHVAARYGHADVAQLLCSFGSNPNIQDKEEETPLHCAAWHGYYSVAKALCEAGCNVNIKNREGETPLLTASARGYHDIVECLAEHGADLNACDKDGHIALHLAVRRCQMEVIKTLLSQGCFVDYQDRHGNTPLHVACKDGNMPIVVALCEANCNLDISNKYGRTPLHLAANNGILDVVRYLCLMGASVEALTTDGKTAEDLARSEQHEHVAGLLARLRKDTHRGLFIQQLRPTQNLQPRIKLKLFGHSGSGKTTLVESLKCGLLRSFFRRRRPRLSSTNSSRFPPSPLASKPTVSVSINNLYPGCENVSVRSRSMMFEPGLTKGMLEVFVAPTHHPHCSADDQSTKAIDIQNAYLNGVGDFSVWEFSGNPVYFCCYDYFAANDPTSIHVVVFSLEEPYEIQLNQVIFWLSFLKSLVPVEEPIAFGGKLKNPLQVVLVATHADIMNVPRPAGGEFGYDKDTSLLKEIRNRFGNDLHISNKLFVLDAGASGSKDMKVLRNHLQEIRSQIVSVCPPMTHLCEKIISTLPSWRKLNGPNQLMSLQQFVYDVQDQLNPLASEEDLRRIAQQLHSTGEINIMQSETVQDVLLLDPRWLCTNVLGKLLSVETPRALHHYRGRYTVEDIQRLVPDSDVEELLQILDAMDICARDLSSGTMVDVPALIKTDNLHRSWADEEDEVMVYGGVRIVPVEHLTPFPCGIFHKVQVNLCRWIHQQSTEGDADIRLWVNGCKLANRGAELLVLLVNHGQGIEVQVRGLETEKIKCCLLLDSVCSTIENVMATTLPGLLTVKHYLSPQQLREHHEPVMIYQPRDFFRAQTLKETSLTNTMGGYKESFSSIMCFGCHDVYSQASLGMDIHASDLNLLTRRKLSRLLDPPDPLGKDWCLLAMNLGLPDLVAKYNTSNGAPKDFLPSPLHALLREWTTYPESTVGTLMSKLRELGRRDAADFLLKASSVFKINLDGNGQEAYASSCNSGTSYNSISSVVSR
Record form. Attribute: inhibition. Fill in for each entry.
One number for each entry, in %.

Consider the following illustrative entries.
Need inhibition of "COc1ccc(Oc2nc(Nc3ccc(N4CCCCC4)nc3)ncc2NC(=O)c2cc(OC)cc(OC)c2)cc1" , thanks.
67.3

Need inhibition of "COc1ccc(Oc2nc(Nc3ccc(N4CCOCC4)nc3)ncc2NC(N)=O)cc1" , thanks.
19.7

Need inhibition of "COc1cccc(Oc2nc(Nc3ccc(N4CCOCC4)cc3)ncc2NC(N)=O)c1" , thanks.
15.8

Need inhibition of "COc1ccc(Oc2nc(Nc3ccc(N4CCOCC4)cc3)ncc2NC(=O)c2cccc(OC)c2)cc1" , thanks.
75.1

Need inhibition of "COc1ccc(Oc2nc(Nc3ccc(F)cc3)ncc2NC(=O)c2cc(OC)cc(OC)c2)cc1" , thanks.
65

# batch size: 2; output inhibition per entry
1. COc1ccc(Oc2nc(Nc3ccc(N4CCOCC4)nc3)ncc2NC(=O)c2cc(OC)cc(OC)c2)cc1
2. COc1ccc(Oc2nc(Nc3ccc(N4CCCCC4)nc3)ncc2NC(N)=O)cc1

[66.2, 31.7]

Need inhibition of "COc1ccc(Oc2nc(Nc3ccc(F)cc3)ncc2NC(N)=O)cc1" , thanks.
17.1

###

biological target: Macrophage colony-stimulating factor 1 receptor (Homo sapiens, UniProt P07333); assay: Inhibition of human CSF1R using poly[Glu:Tyr] (4:1) as substrate after 120 mins in presence of 100 uM [gamma-33P]-ATP by filtration method
Sequence (P07333 whole entry): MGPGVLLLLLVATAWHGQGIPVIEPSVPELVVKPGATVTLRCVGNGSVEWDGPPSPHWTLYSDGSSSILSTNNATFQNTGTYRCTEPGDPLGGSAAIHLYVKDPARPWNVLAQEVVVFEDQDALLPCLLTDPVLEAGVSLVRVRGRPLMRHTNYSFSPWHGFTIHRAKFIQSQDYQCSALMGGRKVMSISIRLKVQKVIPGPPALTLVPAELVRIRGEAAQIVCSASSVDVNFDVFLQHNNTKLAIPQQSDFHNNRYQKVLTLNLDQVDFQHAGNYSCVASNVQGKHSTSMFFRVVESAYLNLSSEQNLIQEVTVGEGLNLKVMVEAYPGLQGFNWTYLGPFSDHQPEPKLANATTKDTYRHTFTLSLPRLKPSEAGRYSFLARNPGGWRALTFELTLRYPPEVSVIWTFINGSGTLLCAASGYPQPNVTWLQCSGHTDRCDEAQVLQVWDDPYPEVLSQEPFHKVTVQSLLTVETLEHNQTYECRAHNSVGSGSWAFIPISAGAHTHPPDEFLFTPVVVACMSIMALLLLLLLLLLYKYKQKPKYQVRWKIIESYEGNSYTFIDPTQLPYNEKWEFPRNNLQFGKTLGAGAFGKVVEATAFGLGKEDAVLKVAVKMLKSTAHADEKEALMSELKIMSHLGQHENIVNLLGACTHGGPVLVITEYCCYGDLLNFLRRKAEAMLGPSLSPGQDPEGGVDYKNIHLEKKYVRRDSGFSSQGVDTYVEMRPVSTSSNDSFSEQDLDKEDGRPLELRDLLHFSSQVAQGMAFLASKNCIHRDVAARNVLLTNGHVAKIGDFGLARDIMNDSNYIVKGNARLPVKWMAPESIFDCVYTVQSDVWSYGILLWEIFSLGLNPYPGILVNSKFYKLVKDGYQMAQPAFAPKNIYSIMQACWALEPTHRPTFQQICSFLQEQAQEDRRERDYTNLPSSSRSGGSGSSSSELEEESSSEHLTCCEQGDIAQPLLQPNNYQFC
VALUE_TYPE: IC50

Need IC50 of "COc1ccc(Oc2nc(Nc3ccc(N4CCOCC4)nc3)ncc2NC(=O)c2cc(OC)cc(OC)c2)cc1" , thanks.
273 nM

###

target: Death-associated protein kinase 1 (Homo sapiens, UniProt P53355); experiment: Inhibition of human DAPK1 (1 to 363 residues) using KKLNRTLSFAEPG as substrate after 120 mins in presence of 1 uM [gamma-33P]-ATP by filtration method
Sequence (P53355 whole entry, the tested form may be a part): as the sequence (P53355 whole entry, looked up, the tested form may be a part) above
VALUE_TYPE: pIC50
Give bare numbers, as −log10 of the molar value.

Give Death-associated protein kinase 1 (Homo sapiens, UniProt P53355) pIC50 for "COc1ccc(Oc2nc(Nc3ccc(N4CCOCC4)nc3)ncc2NC(=O)c2cc(OC)cc(OC)c2)cc1"
5.54

###

target: Death-associated protein kinase 1 (Homo sapiens, UniProt P53355); experiment: Inhibition of human DAPK1 (1 to 363 residues) using KKLNRTLSFAEPG as substrate after 120 mins in presence of 100 uM [gamma-33P]-ATP by filtration method
VALUE_TYPE: pIC50
Answers are plain numbers, as −log10 of the molar value.

Need pIC50 of "COc1ccc(Oc2nc(Nc3ccc(N4CCOCC4)nc3)ncc2NC(=O)c2cc(OC)cc(OC)c2)cc1" , thanks.
6.04

###

target: Macrophage colony-stimulating factor 1 receptor (Homo sapiens, UniProt P07333); test: Inhibition of human CSF1R using poly[Glu:Tyr] (4:1) as substrate after 120 mins in presence of 1 uM [gamma-33P]-ATP by filtration method
VALUE_TYPE: pIC50
Give bare numbers, as −log10 of the molar value.

Need pIC50 of "COc1ccc(Oc2nc(Nc3ccc(N4CCOCC4)nc3)ncc2NC(=O)c2cc(OC)cc(OC)c2)cc1" , thanks.
7.16

###

assay: Cytotoxicity against LPS-stimulated mouse BV2 cells assessed as cell viability at 10 uM after 24 hrs by MTT assay relative to control; type: cell-based, BV-2; details: read-out: Activity
VALUE_TYPE: viability at 24 h, 10 µM

Need viability at 24 h, 10 µM of "COc1ccc(Oc2nc(Nc3ccc(N4CCOCC4)nc3)ncc2NC(=O)c2cc(OC)cc(OC)c2)cc1" , thanks.
> 92%

###

target: Death-associated protein kinase 1 (Homo sapiens, UniProt P53355); test: Inhibition of human DAPK1 (1 to 363 residues) using KKLNRTLSFAEPG as substrate after 120 mins in presence of 10 uM [gamma-33P]-ATP by filtration method
Record form. Attribute: IC50. Fill in for each entry.
One number for each entry, in nM.

Consider the following illustrative entries.
Need IC50 of "NC(=O)Nc1cnc(Nc2ccc(N3CCOCC3)cc2)nc1Oc1ccc(C(F)(F)F)cc1" , thanks.
14300

Need IC50 of "COc1ccc(Oc2nc(Nc3ccc(N4CCCCC4)nc3)ncc2NC(=O)c2cc(OC)cc(OC)c2)cc1" , thanks.
2690

Need IC50 of "COc1ccc(Oc2nc(Nc3ccc(N4CCOCC4)cc3)ncc2NC(=O)c2cccc(OC)c2)cc1" , thanks.
7440

Need IC50 of "COc1ccc(Oc2nc(Nc3ccc(N4CCOCC4)cc3)ncc2NC(=O)c2cccc(C(F)(F)F)c2)cc1" , thanks.
2610

Need IC50 of "COc1ccc(Oc2nc(Nc3ccc(N4CCOCC4)cc3)ncc2NC(=O)c2cc(OC)cc(OC)c2)cc1" , thanks.
2770

# batch size: 2; output IC50 per entry
1. COc1ccc(Oc2nc(Nc3ccc(F)cc3)ncc2NC(=O)c2cc(OC)cc(OC)c2)cc1
2. COc1ccc(Oc2nc(Nc3ccc(N4CCOCC4)nc3)ncc2NC(=O)c2cc(OC)cc(OC)c2)cc1

1: 4290; 2: 1250

###

molecular target: UniProtKB P53355
VALUE_TYPE: Ki (nM)
One number for each entry, in nM.

Need Ki of "COc1ccc(Oc2nc(Nc3ccc(N4CCOCC4)nc3)ncc2NC(=O)c2cc(OC)cc(OC)c2)cc1" , thanks.
581

###

target: Death-associated protein kinase 1 (Homo sapiens); assay: Inhibition of DAPK1 in HEK293 tau-BiFC cells assessed as reduction in forskolin-induced tau aggregation after 48 hrs by Hoechst staining based HCS analysis; format: cell-based
VALUE_TYPE: pIC50
Answers are plain numbers, as −log10 of the molar value.

Need pIC50 of "COc1ccc(Oc2nc(Nc3ccc(N4CCOCC4)nc3)ncc2NC(=O)c2cc(OC)cc(OC)c2)cc1" , thanks.
5.30

###

test: Effective permeability of the compound at 12.5 uM after 4 hrs by PAMPA; type: ADME; conditions: read-out: Peff
VALUE_TYPE: Papp at 4 h, 12.5 µM (×10⁻⁶ cm/s)
Answers are plain numbers, in ×10⁻⁶ cm/s.

Need Papp at 4 h, 12.5 µM of "COc1ccc(Oc2nc(Nc3ccc(N4CCOCC4)nc3)ncc2NC(=O)c2cc(OC)cc(OC)c2)cc1" , thanks.
57

###

target: UniProt:P07333; experiment: Inhibition of human CSF1R at 10 uM using poly[Glu:Tyr] (4:1) as substrate after 120 mins in presence of 10 uM [gamma-33P]-ATP by filtration method relative to control
Outcome label depends on inhibition relative to 80%: at/above gives 1, below gives -1.

Take a look at these entries with their results.
Kindly determine if inhibition recorded for "COc1ccc(Oc2nc(Nc3ccc(N4CCOCC4)cc3)ncc2NC(=O)c2cc(OC)cc(OC)c2)cc1" is above or exactly 80%.
1

Kindly determine if inhibition recorded for "NC(=O)Nc1cnc(Nc2ccc(N3CCOCC3)cc2)nc1Oc1ccc(C(F)(F)F)cc1" is above or exactly 80%.
-1

Kindly determine if inhibition recorded for "COc1ccc(Oc2nc(Nc3ccc(F)cc3)ncc2NC(N)=O)cc1" is above or exactly 80%.
-1

Kindly determine if inhibition recorded for "COc1ccc(Oc2nc(Nc3ccc(N4CCOCC4)cc3)ncc2NC(=O)c2cccc(OC)c2)cc1" is above or exactly 80%.
1

Now look at this entry.
Kindly determine if inhibition recorded for "COc1ccc(Oc2nc(Nc3ccc(N4CCOCC4)cc3)ncc2NC(=O)c2cccc(C(F)(F)F)c2)cc1" is above or exactly 80%.
-1

###

molecular target: Death-associated protein kinase 1 (Homo sapiens, UniProt P53355); experiment: Inhibition of human DAPK1 (1 to 363 residues) at 20 uM using KKLNRTLSFAEPG as substrate after 120 mins in presence of 10 uM [gamma-33P]-ATP by filtration method relative to control
VALUE_TYPE: inhibition (%)
Numbers only, in %.

Consider the following illustrative entries.
Give Death-associated protein kinase 1 (Homo sapiens, UniProt P53355) inhibition for "COc1ccc(Oc2nc(Nc3ccc(N4CCOCC4)cc3)ncc2NC(=O)c2cccc(C(F)(F)F)c2)cc1"
69.7

Give Death-associated protein kinase 1 (Homo sapiens, UniProt P53355) inhibition for "NC(=O)Nc1cnc(Nc2ccc(N3CCOCC3)cc2)nc1Oc1ccc(C(F)(F)F)cc1"
44.9

Give Death-associated protein kinase 1 (Homo sapiens, UniProt P53355) inhibition for "COc1ccc(Oc2nc(Nc3ccc(N4CCOCC4)cc3)ncc2NC(=O)c2cc(OC)cc(OC)c2)cc1"
66

# evaluate next
Give Death-associated protein kinase 1 (Homo sapiens, UniProt P53355) inhibition for "COc1ccc(Oc2nc(Nc3ccc(N4CCOCC4)cc3)ncc2NC(N)=O)cc1"
10.8
